- Test system: Primary neuron
- Procedure Text: Neuroprotective activity against oxygen-glucose deprivation-induced cell death in Sprague-Dawley rat primary neuronal cells assessed as cell viability at 1 to 250 uM treated at onset of recovery period and measured at 24 hrs of recovery by MTT assay relative to control
- Type: functional, cell-based
The source made the active and inactive calls. The calls are words filed in the database; no cut-off is given here.
Choose the fitting class; nothing outside active, inactive is accepted.

> print(dat)
                                  structure  class.assignment
1  [O-]/[N+](=C\c1cc2cc(Cl)ccc2nc1Cl)Cc1ccccc1          inactive
2        Cc1ccc2nc(Cl)c(/C=N/C(C)(C)C)cc2c1          inactive
3  Cc1ccc2nc(O)c(/C=[N+](\[O-])C(C)(C)C)cc2c1            active
4               Cc1ccc2nc(Cl)c(/C=N/N)cc2c1          inactive

Would you kindly look at the next entry?
Check the results log: what was the call for Cc1ccc2ncc(/C=[N+](\[O-])Cc3ccccc3)cc2c1 ?
active

---

- Procedure Text: Antioxidant activity assessed as ABTS radical cation scavenging activity by measuring trolox equivalents at 10 uL after 1 min
- Format: functional
Calls of active or inactive are those of the source. No cut-off for these calls is given here.
Measurement Type: Activity

Answered examples (6):
> print(dat)
                                   compound  readout.value
1     CC(C)(C)/[N+]([O-])=C/c1cc2ccccc2nc1O             6%
2  CC(C)(C)/[N+]([O-])=C/c1ccc(S(=O)(=O)[O-])cc1S(=O)(=O)[O-].[Na+].[Na+]       inactive
3  Cc1c(C)c2c(c(C)c1O)CCC(C)(C(=O)O)O2 (configuration not stated)            91%
4  COc1ccc2nc(Cl)c(/C=[N+](\[O-])C(C)(C)C)cc2c1             7%
5  COc1ccc2nc(Cl)c(/C=[N+](\[O-])Cc3ccccc3)cc2c1       inactive
6    CC(C)(C)/[N+]([O-])=C/c1cc2ccccc2nc1Cl       inactive

Then there is this compound:
Lab note: COc1ccc2nc(Cl)c(/C=[N+](/C)[O-])cc2c1 gave Activity of inactive

---

- System: Primary neuron
- Procedure Text: Neuroprotective activity against oxygen-glucose deprivation-induced cell death in Sprague-Dawley rat primary neuronal cells assessed as cell viability at 1 to 250 uM treated at onset of recovery period and measured at 24 hrs of recovery by MTT assay relative to control
- Assay type: functional, cell-based
Activity calls are given as the source filed them. The calls are words filed in the database; no cut-off is given here.
Choose the fitting class; nothing outside TRUE (active), FALSE (inactive) is accepted.

> print(dat)
                                  structure     test.system  class.assignment
1  Cc1ccc2nc(N(C)C)c(/C=[N+](\[O-])Cc3ccccc3)cc2c1  Primary neuron              TRUE
2     COc1ccc2nc(Cl)c(/C=[N+](/C)[O-])cc2c1  Primary neuron             FALSE
3  [O-]/[N+](=C\c1cc2cc(O)ccc2nc1Cl)Cc1ccccc1  Primary neuron             FALSE
4  Cc1ccc2nc(Cl)c(/C=[N+](\[O-])c3ccccc3)cc2c1  Primary neuron             FALSE
5      Cc1ccc2nc(Cl)c(/C=N/NCc3ccccc3)cc2c1  Primary neuron             FALSE

Would you kindly look at the next entry?
Check the results log: what was the call for Cc1ccc2nc(O)c(/C=[N+](\[O-])Cc3ccccc3)cc2c1 ?
TRUE

---

- Procedure Text: Antiinflammatory activity assessed as NO release at 100 uM after 60 mins in presence of L-cysteine by Griess reagent-based relative to control
- Assay type: functional
Measurement Type: Activity (%)
Respond numerically; units are % and should not be typed.

> print(dat)
                                  structure  readout.value
1    CC(C)(C)/[N+]([O-])=C/c1cc2ccccc2nc1Cl            7.5
2  COc1ccc2nc(Cl)c(/C=[N+](\[O-])C(C)(C)C)cc2c1              3

Lab note: COc1ccc2nc(Cl)c(/C=[N+](\[O-])Cc3ccccc3)cc2c1 gave Activity of 12.5

Lab note: COc1ccc2nc(Cl)c(/C=[N+](/C)[O-])cc2c1 gave Activity of 11

Lab note: CC(C)(C)/[N+]([O-])=C/c1ccc(S(=O)(=O)[O-])cc1S(=O)(=O)[O-].[Na+].[Na+] gave Activity of 1
